Origin of measurements: paper PMC6789174

Target: glucose-6-phosphatase (Homo sapiens)
Sequence (P35575 whole entry, species assumed): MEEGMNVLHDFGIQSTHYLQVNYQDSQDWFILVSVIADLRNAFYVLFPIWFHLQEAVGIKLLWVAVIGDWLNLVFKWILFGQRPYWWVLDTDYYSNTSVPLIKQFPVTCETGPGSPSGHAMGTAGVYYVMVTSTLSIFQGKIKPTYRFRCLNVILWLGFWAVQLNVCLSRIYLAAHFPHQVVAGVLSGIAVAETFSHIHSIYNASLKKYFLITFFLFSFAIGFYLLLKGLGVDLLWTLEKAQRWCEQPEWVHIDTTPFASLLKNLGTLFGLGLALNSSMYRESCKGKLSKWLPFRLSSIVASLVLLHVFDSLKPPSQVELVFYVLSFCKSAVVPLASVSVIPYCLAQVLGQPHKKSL
Assay: Glucose-6-phosphatase activity
Type: biochemical
Settings: concentration 125 µg/mL; 33°C, pH 6.7; control 72.0
// values below are reported Total Activity of glucose-6-phosphatase

Examples with answers:
[
  {
    "COMPOUND": "Cc1ccc(NC(=S)Nc2ccccc2)c(C)c1 [Compound IV, 1-(2,4-dimethylphenyl)-3-phenylthiourea]",
    "Total Activity of glucose-6-phosphatase": "17.70 mg of P released per hour"
  },
  {
    "COMPOUND": "Fc1ccccc1NC(=S)Nc1ccccc1 [Compound V, 1-(2-fluorophenyl)-3-phenylthiourea]",
    "Total Activity of glucose-6-phosphatase": "05.66 mg of P released per hour"
  },
  {
    "COMPOUND": "S=C(NC(c1ccccn1)C(Cc1ccccc1)Cc1ccccc1)NC(c1ccccn1)C(Cc1ccccc1)Cc1ccccc1 (stereo not shown) [Compound I]",
    "Total Activity of glucose-6-phosphatase": "34.11 mg of P released per hour"
  }
]

Now consider the entry below.
// query Form entry - test system: glucose-6-phosphatase (Homo sapiens); read-out: Total Activity of glucose-6-phosphatase; compound: S=C(Nc1ccccc1)NC(c1ccccn1)C(Cc1ccccc1)Cc1ccccc1 (stereo not shown) [Compound III]
// result 32.04 mg of P released per hour

###

Biological target: porcine α-amylase (Sus scrofa, UniProt P00690)
Experiment: biochemical
Details: read-out: %Inhibition (mean ± SEM), alpha amylase, concentration 250 µg/mL
OBSERVABLE: inhibition at 250 µg/mL (%)
Value expressed in %; do not type the unit.

[
  {
    "MOLECULE": "S=C(Nc1ccccc1)NC(c1ccccn1)C(Cc1ccccc1)Cc1ccccc1 (stereo not shown) [Compound III]",
    "QUANTITATIVE_READOUT": 62.5
  },
  {
    "MOLECULE": "Fc1ccccc1NC(=S)Nc1ccccc1 [Compound V, 1-(2-fluorophenyl)-3-phenylthiourea]",
    "QUANTITATIVE_READOUT": 55.9
  },
  {
    "MOLECULE": "Cc1ccc(NC(=S)Nc2ccccc2)c(C)c1 [Compound IV, 1-(2,4-dimethylphenyl)-3-phenylthiourea]",
    "QUANTITATIVE_READOUT": 75.6
  }
]

Now consider the entry below.
// query Recorded inhibition at 250 µg/mL for S=C(NC(c1ccccn1)C(Cc1ccccc1)Cc1ccccc1)NC(c1ccccn1)C(Cc1ccccc1)Cc1ccccc1 (stereo not shown) [Compound I] , please?
// result 63.1

###

Target: Acetylcholinesterase (Homo sapiens, UniProt P22303)
Sequence (P22303 32-614, species assumed): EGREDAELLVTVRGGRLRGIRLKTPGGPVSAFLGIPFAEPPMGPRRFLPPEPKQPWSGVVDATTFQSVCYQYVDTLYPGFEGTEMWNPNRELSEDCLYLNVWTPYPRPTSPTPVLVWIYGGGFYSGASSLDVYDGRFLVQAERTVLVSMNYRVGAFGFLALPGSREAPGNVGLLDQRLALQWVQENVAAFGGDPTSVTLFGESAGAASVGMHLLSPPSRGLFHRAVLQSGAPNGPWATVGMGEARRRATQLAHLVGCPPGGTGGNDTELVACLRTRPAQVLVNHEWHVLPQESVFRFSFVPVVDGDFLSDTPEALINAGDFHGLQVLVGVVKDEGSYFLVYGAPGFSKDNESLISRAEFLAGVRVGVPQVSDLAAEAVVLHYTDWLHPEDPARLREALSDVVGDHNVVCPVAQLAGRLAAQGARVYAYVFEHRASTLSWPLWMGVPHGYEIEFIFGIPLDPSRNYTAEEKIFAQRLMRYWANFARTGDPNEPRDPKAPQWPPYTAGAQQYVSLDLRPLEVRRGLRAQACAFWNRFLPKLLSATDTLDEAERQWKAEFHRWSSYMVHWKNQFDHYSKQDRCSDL
Experiment: biochemical
Details: read-out: %AChE Inhibition (mean ± SEM)
OBSERVABLE: inhibition at 125 µg/mL (%)
Value expressed in %; do not type the unit.

// query Recorded inhibition at 125 µg/mL for S=C(Nc1ccccc1)NC(c1ccccn1)C(Cc1ccccc1)Cc1ccccc1 (stereo not shown) , please?
// result 62.2

// query Can you check Fc1ccccc1NC(=S)Nc1ccccc1 next?
// result 51.8

// query Can you check Cc1ccc(NC(=S)Nc2ccccc2)c(C)c1 next?
// result 42

// query Can you check S=C(NC(c1ccccn1)C(Cc1ccccc1)Cc1ccccc1)NC(c1ccccn1)C(Cc1ccccc1)Cc1ccccc1 (stereo not shown) next?
// result 38.6

###

Tested on: Proteus vulgaris
Assay: Anti-bacterial activity, agar well diffusion
Type: cell-based
Settings: read-out: MIC, Proteus vulgaris
// values below are reported MIC
Value expressed in µg/mL; do not type the unit.

Examples with answers:
[
  {
    "MOLECULE": "S=C(Nc1ccccc1)NC(c1ccccn1)C(Cc1ccccc1)Cc1ccccc1 (stereo not shown)",
    "VALUE_UNIT": "µg/mL",
    "QUANTITATIVE_READOUT": 15
  },
  {
    "MOLECULE": "S=C(NC(c1ccccn1)C(Cc1ccccc1)Cc1ccccc1)NC(c1ccccn1)C(Cc1ccccc1)Cc1ccccc1 (stereo not shown)",
    "VALUE_UNIT": "µg/mL",
    "QUANTITATIVE_READOUT": 9.76
  },
  {
    "MOLECULE": "Fc1ccccc1NC(=S)Nc1ccccc1",
    "VALUE_UNIT": "µg/mL",
    "QUANTITATIVE_READOUT": 8.94
  }
]

// query Form entry - test system: Proteus vulgaris; read-out: MIC; molecule: Cc1ccc(NC(=S)Nc2ccccc2)c(C)c1
// result 11.9

###

// values below are reported inhibition at 1000 µg/mL
Target: Acetylcholinesterase (Homo sapiens, UniProt P22303)
Assay: biochemical
Details: read-out: %AChE Inhibition (mean ± SEM)
Value expressed in %; do not type the unit.

[
  {
    "COMPOUND": "Cc1ccc(NC(=S)Nc2ccccc2)c(C)c1",
    "QUANTITATIVE_READOUT": 64
  }
]

// query Recorded inhibition at 1000 µg/mL for S=C(NC(c1ccccn1)C(Cc1ccccc1)Cc1ccccc1)NC(c1ccccn1)C(Cc1ccccc1)Cc1ccccc1 (stereo not shown) , please?
// result 68.1

// query Can you check S=C(Nc1ccccc1)NC(c1ccccn1)C(Cc1ccccc1)Cc1ccccc1 (stereo not shown) next?
// result 84.3

// query Can you check Fc1ccccc1NC(=S)Nc1ccccc1 next?
// result 70.2

###

Molecular target: UniProt:P35575
Test: Glucose-6-phosphatase activity
Format: biochemical
Conditions: concentration 500 µg/mL; 33°C, pH 6.7; control 72.0
OBSERVABLE: Total Activity of glucose-6-phosphatase

Examples with answers:
[
  {
    "MOLECULE": "S=C(NC(c1ccccn1)C(Cc1ccccc1)Cc1ccccc1)NC(c1ccccn1)C(Cc1ccccc1)Cc1ccccc1 (stereo not shown)",
    "Total Activity of glucose-6-phosphatase": "25.31 mg of P released per hour"
  },
  {
    "MOLECULE": "S=C(Nc1ccccc1)NC(c1ccccn1)C(Cc1ccccc1)Cc1ccccc1 (stereo not shown)",
    "Total Activity of glucose-6-phosphatase": "27.10 mg of P released per hour"
  },
  {
    "MOLECULE": "Fc1ccccc1NC(=S)Nc1ccccc1",
    "Total Activity of glucose-6-phosphatase": "04.16 mg of P released per hour"
  }
]

// query Recorded Total Activity of glucose-6-phosphatase for Cc1ccc(NC(=S)Nc2ccccc2)c(C)c1 , please?
// result 11.77 mg of P released per hour

###

In what follows, each item is paired with its pIC50 for Acetylcholinesterase (Homo sapiens, UniProt P22303).
// pIC50: -log10(molar conc.)

Examples with answers:
[
  {
    "COMPOUND": "S=C(Nc1ccccc1)NC(c1ccccn1)C(Cc1ccccc1)Cc1ccccc1 (stereo not shown) [Compound III]",
    "QUANTITATIVE_READOUT": 3.84
  },
  {
    "COMPOUND": "S=C(NC(c1ccccn1)C(Cc1ccccc1)Cc1ccccc1)NC(c1ccccn1)C(Cc1ccccc1)Cc1ccccc1 (stereo not shown) [Compound I]",
    "QUANTITATIVE_READOUT": 2.81
  }
]

// query Recorded pIC50 for Cc1ccc(NC(=S)Nc2ccccc2)c(C)c1 [Compound IV, 1-(2,4-dimethylphenyl)-3-phenylthiourea] , please?
// result 2.71

// query Can you check Fc1ccccc1NC(=S)Nc1ccccc1 [Compound V, 1-(2-fluorophenyl)-3-phenylthiourea] next?
// result 3.13

###

Target: Butyrylcholinesterase (Homo sapiens)
Sequence (P06276 29-602): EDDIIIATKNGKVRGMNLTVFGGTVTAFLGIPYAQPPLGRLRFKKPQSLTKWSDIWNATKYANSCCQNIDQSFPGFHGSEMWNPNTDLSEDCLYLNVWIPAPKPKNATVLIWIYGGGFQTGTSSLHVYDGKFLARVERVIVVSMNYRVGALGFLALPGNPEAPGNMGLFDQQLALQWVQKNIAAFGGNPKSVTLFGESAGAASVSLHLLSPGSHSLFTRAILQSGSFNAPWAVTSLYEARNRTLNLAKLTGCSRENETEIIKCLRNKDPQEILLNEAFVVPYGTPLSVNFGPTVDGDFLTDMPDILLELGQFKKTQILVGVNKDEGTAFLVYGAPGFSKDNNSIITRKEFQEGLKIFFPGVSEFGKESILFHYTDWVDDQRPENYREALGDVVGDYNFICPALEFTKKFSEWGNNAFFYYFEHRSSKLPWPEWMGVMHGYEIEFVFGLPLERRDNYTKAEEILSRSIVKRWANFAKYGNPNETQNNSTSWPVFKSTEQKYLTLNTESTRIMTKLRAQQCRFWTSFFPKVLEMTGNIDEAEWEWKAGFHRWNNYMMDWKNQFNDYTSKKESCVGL
Assay: Anticholinesterase assay
Assay type: biochemical
Details: read-out: %BChE Inhibition (mean ± SEM)
OBSERVABLE: inhibition at 250 µg/mL (%)
Value expressed in %; do not type the unit.

// query Form entry - test system: Butyrylcholinesterase (Homo sapiens); read-out: inhibition at 250 µg/mL; molecule: S=C(NC(c1ccccn1)C(Cc1ccccc1)Cc1ccccc1)NC(c1ccccn1)C(Cc1ccccc1)Cc1ccccc1 (stereo not shown)
// result 51.4

###

// values below are reported inhibition at 1000 µg/mL
Biological target: UniProt:P00690
Sequence (P00690 16-511): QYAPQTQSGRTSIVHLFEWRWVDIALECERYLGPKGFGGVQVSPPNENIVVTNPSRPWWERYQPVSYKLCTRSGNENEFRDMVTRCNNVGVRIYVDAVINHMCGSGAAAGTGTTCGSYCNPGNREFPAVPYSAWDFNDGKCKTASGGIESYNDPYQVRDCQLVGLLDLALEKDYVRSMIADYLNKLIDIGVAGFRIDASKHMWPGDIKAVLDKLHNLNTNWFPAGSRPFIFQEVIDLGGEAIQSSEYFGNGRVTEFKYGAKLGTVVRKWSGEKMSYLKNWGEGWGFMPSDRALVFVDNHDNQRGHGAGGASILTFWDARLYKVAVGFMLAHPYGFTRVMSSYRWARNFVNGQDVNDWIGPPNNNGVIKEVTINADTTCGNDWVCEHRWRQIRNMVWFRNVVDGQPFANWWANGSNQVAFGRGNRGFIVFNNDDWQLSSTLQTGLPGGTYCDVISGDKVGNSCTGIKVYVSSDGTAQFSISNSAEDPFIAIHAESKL
Assay: biochemical
Details: read-out: %Inhibition (mean ± SEM), alpha amylase, concentration 1000 µg/mL
Value expressed in %; do not type the unit.

Examples with answers:
[
  {
    "COMPOUND": "Fc1ccccc1NC(=S)Nc1ccccc1",
    "QUANTITATIVE_READOUT": 62.8
  },
  {
    "COMPOUND": "S=C(NC(c1ccccn1)C(Cc1ccccc1)Cc1ccccc1)NC(c1ccccn1)C(Cc1ccccc1)Cc1ccccc1 (stereo not shown)",
    "QUANTITATIVE_READOUT": 70.3
  }
]

// query Recorded inhibition at 1000 µg/mL for Cc1ccc(NC(=S)Nc2ccccc2)c(C)c1 , please?
// result 80.1

// query Can you check S=C(Nc1ccccc1)NC(c1ccccn1)C(Cc1ccccc1)Cc1ccccc1 (stereo not shown) next?
// result 65.8
